Let's look at some molecules and their measured GPI IC50 Ratio, Ethylketazocine.
- TARGET_OR_SYSTEM: kappa opioid receptor (Cavia porcellus, UniProt P41144)
- Construct: a strip of longitudinal muscle with the myenteric plexus attached was prepared; from tissue; host or cells: guinea pig ileal longitudinal muscle strip with myenteric plexus
- Sequence (P41144 whole entry): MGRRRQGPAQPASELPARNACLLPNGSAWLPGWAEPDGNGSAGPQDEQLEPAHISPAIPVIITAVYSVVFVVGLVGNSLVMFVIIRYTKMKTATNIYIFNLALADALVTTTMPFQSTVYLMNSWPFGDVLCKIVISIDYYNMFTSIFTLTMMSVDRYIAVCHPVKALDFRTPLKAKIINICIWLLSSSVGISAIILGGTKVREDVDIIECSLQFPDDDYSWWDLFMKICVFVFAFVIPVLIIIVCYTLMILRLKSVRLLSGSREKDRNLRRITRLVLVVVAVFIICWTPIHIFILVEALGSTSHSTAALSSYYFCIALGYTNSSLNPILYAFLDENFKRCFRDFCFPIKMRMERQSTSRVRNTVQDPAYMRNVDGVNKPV
- ASSAY_PROCEDURE: Antagonism of ethylketazocine (EK, kappa agonist) on the GPI, IC50 ratio
- Format: cell-based, guinea pig
- MEASUREMENT_PARAMETERS: antagonist 20 nM; IC50 of agonist in presence of antagonist / control IC50
Give the figure only, with no unit attached.

Give kappa opioid receptor (Cavia porcellus, UniProt P41144) GPI IC50 Ratio, Ethylketazocine for Cn1c2c(c3c1[C@@H]1Oc4c(O)ccc5c4[C@@]14CCN(CC1CC1)[C@H](C5)[C@]4(O)C3)C[C@@]1(O)[C@H]3Cc4ccc(O)c5c4[C@@]1(CCN3CC1CC1)[C@H]2O5
165

Moving on to another molecule below.
Lookup: GPI IC50 Ratio, Ethylketazocine / kappa opioid receptor (Cavia porcellus, UniProt P41144) / Oc1ccc2c3c1O[C@H]1[C@H](NCCOCCOCCN[C@@H]4CC[C@@]5(O)[C@H]6Cc7ccc(O)c8c7[C@@]5(CCN6CC5CC5)[C@H]4O8)CC[C@@]4(O)[C@@H](C2)N(CC2CC2)CC[C@]314 [TENA, reference compound]
19.6

----------
- TARGET_OR_SYSTEM: mu receptor (Cavia porcellus, UniProt A0ACM8Q262)
- Construct: antagonism of morphine
- Sequence (A0ACM8Q262 1-400): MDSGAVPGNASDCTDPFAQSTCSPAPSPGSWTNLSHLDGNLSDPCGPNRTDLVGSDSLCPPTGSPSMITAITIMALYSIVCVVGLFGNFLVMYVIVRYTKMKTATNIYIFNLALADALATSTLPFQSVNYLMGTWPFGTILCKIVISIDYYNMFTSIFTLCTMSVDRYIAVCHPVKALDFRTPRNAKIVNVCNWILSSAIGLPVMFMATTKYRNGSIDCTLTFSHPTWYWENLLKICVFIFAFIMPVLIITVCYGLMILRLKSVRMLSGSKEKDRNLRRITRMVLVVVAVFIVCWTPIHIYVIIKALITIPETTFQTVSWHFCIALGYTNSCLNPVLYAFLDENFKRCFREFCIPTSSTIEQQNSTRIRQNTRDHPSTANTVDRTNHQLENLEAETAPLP
- ASSAY_PROCEDURE: Antagonism of morphine sulfate (mu agonist) on the GPI, IC50 ratio
- Type: cell-based, guinea pig
- MEASUREMENT_PARAMETERS: antagonist 20 nM; IC50 of agonist in presence of antagonist / control IC50
READOUT_TYPE: GPI IC50 Ratio, Morphine Sulfate

Given the entry Cn1c2c(c3c1[C@@H]1Oc4c(O)ccc5c4[C@@]14CCN(CC1CC1)[C@H](C5)[C@]4(O)C3)C[C@@]1(O)[C@H]3Cc4ccc(O)c5c4[C@@]1(CCN3CC1CC1)[C@H]2O5 [IIIb] , report its measured GPI IC50 Ratio, Morphine Sulfate.
1.2 ± 0.3

What does the record list as GPI IC50 Ratio, Morphine Sulfate for COc1ccc2c3c1O[C@H]1c4[nH]c5c(c4C[C@@]4(O)[C@@H](C2)N(CC2CC2)CC[C@]314)C[C@@]1(O)[C@H]2Cc3ccc(OC)c4c3[C@@]1(CCN2CC1CC1)[C@H]5O4 [IIIe] ?
0.8 (2)

Now look at this entry.
Could you tell me which GPI IC50 Ratio, Morphine Sulfate is on file for CC(=O)Oc1ccc2c3c1O[C@H]1c4[nH]c5c(c4C[C@@]4(O)[C@@H](C2)N(CC2CC2)CC[C@]314)C[C@@]1(O)[C@H]2Cc3ccc(OC(C)=O)c4c3[C@@]1(CCN2CC1CC1)[C@H]5O4 [IIId] ?
8.0 (2)

----------
GPI IC50 Ratio, Ethylketazocine: recorded values
- TARGET_OR_SYSTEM: kappa opioid receptor (Cavia porcellus)
- Construct: a strip of longitudinal muscle with the myenteric plexus attached was prepared; from tissue; host or cells: guinea pig ileal longitudinal muscle strip with myenteric plexus
- ASSAY_PROCEDURE: Antagonism of ethylketazocine (EK, kappa agonist) on the GPI, IC50 ratio
- Assay type: cell-based, guinea pig
- MEASUREMENT_PARAMETERS: antagonist 20 nM; IC50 of agonist in presence of antagonist / control IC50
Enter a number only.

What value of GPI IC50 Ratio, Ethylketazocine has been reported for the following molecule? Oc1ccc2c3c1O[C@H]1c4[nH]c5c(c4C[C@@]4(O)[C@@H](C2)N(CC2CC2)CC[C@]314)C[C@@]1(O)[C@H]2Cc3ccc(O)c4c3[C@@]1(CCN2CC1CC1)[C@H]5O4 [IIIa]
49.7

Note: attention shifts to another entry.
Recorded GPI IC50 Ratio, Ethylketazocine of CCn1c2c(c3c1[C@@H]1Oc4c(O)ccc5c4[C@@]14CCN(CC1CC1)[C@H](C5)[C@]4(O)C3)C[C@@]1(O)[C@H]3Cc4ccc(O)c5c4[C@@]1(CCN3CC1CC1)[C@H]2O5 [IIIc] , please.
147

----------
- TARGET_OR_SYSTEM: delta opioid receptor (Mus musculus)
- Construct: Both vasa deferentia were dissected out of mice; from tissue; host or cells: mouse vas deferens
- ASSAY_PROCEDURE: Antagonism of DADLE (selective delta agonist) on the MVD, IC50 ratio
- Type: cell-based
- MEASUREMENT_PARAMETERS: antagonist 20 nM; IC50 of agonist in presence of antagonist / control IC50
The label depends only on MVD IC50 Ratio, DADLE: YES if it is at least 4, NO if it is smaller.

Quick check, MVD IC50 Ratio, DADLE >= 4? Cn1c2c(c3c1[C@@H]1Oc4c(O)ccc5c4[C@@]14CCN(CC1CC1)[C@H](C5)[C@]4(O)C3)C[C@@]1(O)[C@H]3Cc4ccc(O)c5c4[C@@]1(CCN3CC1CC1)[C@H]2O5 [IIIb]
YES

Given COc1ccc2c3c1O[C@H]1c4[nH]c5c(c4C[C@@]4(O)[C@@H](C2)N(CC2CC2)CC[C@]314)C[C@@]1(O)[C@H]2Cc3ccc(OC)c4c3[C@@]1(CCN2CC1CC1)[C@H]5O4 [IIIe] , state whether its MVD IC50 Ratio, DADLE is at least 4.
NO

Would you kindly look at the next entry?
Form field: MVD IC50 Ratio, DADLE at least 4? Entry: Oc1ccc2c3c1O[C@H]1c4[nH]c5c(c4C[C@@]4(O)[C@@H](C2)N(CC2CC2)CC[C@]314)C[C@@]1(O)[C@H]2Cc3ccc(O)c4c3[C@@]1(CCN2CC1CC1)[C@H]5O4 [IIIa]
NO

----------
- TARGET_OR_SYSTEM: mu receptor (Cavia porcellus, UniProt A0ACM8Q262)
- Construct: antagonism of morphine
- ASSAY_PROCEDURE: Antagonism of morphine sulfate (mu agonist) on the GPI, IC50 ratio
- Type: cell-based, guinea pig
- MEASUREMENT_PARAMETERS: antagonist 20 nM; IC50 of agonist in presence of antagonist / control IC50
READOUT_TYPE: GPI IC50 Ratio, Morphine Sulfate

Fill blank: measured GPI IC50 Ratio, Morphine Sulfate of the compound Oc1ccc2c3c1O[C@H]1c4[nH]c5c(c4C[C@@]4(O)[C@@H](C2)N(CC2CC2)CC[C@]314)C[C@@]1(O)[C@H]2Cc3ccc(O)c4c3[C@@]1(CCN2CC1CC1)[C@H]5O4 is ____.
4.7 ± 0.8

Quick one: GPI IC50 Ratio, Morphine Sulfate of Oc1ccc2c3c1O[C@H]1[C@H](NCCOCCOCCN[C@@H]4CC[C@@]5(O)[C@H]6Cc7ccc(O)c8c7[C@@]5(CCN6CC5CC5)[C@H]4O8)CC[C@@]4(O)[C@@H](C2)N(CC2CC2)CC[C@]314 [TENA, reference compound] ?
4.20 ± 1.20

More entries:
Any idea what its GPI IC50 Ratio, Morphine Sulfate is? The compound is CCn1c2c(c3c1[C@@H]1Oc4c(O)ccc5c4[C@@]14CCN(CC1CC1)[C@H](C5)[C@]4(O)C3)C[C@@]1(O)[C@H]3Cc4ccc(O)c5c4[C@@]1(CCN3CC1CC1)[C@H]2O5
2.2 ± 0.7

----------
Reported MVD IC50 Ratio, DADLE values for the following compounds.
- TARGET_OR_SYSTEM: delta opioid receptor (Mus musculus, UniProt P32300)
- Construct: Both vasa deferentia were dissected out of mice; from tissue; host or cells: mouse vas deferens
- Sequence (P32300 whole entry): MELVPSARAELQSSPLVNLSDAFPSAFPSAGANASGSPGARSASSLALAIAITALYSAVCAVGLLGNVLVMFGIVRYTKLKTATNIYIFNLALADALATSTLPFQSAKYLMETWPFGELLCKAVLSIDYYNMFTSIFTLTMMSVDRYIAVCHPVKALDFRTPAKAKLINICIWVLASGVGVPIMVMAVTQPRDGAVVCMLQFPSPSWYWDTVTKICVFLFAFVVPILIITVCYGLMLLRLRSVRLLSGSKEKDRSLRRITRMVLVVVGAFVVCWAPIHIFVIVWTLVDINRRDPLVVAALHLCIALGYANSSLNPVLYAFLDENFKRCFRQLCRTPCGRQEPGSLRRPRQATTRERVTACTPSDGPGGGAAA
- ASSAY_PROCEDURE: Antagonism of DADLE (selective delta agonist) on the MVD, IC50 ratio
- Type: cell-based
- MEASUREMENT_PARAMETERS: antagonist 20 nM; IC50 of agonist in presence of antagonist / control IC50
I only need the number, thanks.

What does the data say about its MVD IC50 Ratio, DADLE? Entry: Oc1ccc2c3c1O[C@H]1[C@H](NCCOCCOCCN[C@@H]4CC[C@@]5(O)[C@H]6Cc7ccc(O)c8c7[C@@]5(CCN6CC5CC5)[C@H]4O8)CC[C@@]4(O)[C@@H](C2)N(CC2CC2)CC[C@]314 [TENA, reference compound]
1.2

Further cases:
Please give the measured MVD IC50 Ratio, DADLE for this compound: CCn1c2c(c3c1[C@@H]1Oc4c(O)ccc5c4[C@@]14CCN(CC1CC1)[C@H](C5)[C@]4(O)C3)C[C@@]1(O)[C@H]3Cc4ccc(O)c5c4[C@@]1(CCN3CC1CC1)[C@H]2O5 [IIIc]
4.2

# get_value(readout='MVD IC50 Ratio, DADLE', item= CC(=O)Oc1ccc2c3c1O[C@H]1c4[nH]c5c(c4C[C@@]4(O)[C@@H](C2)N(CC2CC2)CC[C@]314)C[C@@]1(O)[C@H]2Cc3ccc(OC(C)=O)c4c3[C@@]1(CCN2CC1CC1)[C@H]5O4 [IIId] )
3.5
